Species: Bos taurus
Assay: Inhibition of NADH oxidase in bovine heart submitochondrial particles at 1 uM after 5 mins by spectrophotometric analysis relative to untreated control
Parameters: scale not given: the % may be the effect or the level left
Consider the cut-off 70%. If the recorded activity is strictly smaller, the label is True; if not, the label is False.

Q: Take the molecule CCCCCCCCCCC1=C(C)C(=O)C(OC)=C(OC)C1=O and say whether its activity is less than 70%.
Result: False

Q: Please indicate whether the reported activity of COC1=C(OC)C(=O)C(CCCCCCCCCCO)=C(C)C1=O is strictly below 70%.
Result: True

Q: Field: below-cutoff. Rule: recorded activity strictly less than 70%. Subject: COC1=C(OC)C(=O)C(CCCCCCCCCCN=[N+]=[N-])=C(C)C1=O
Result: False

Q: Dear colleague, could you confirm whether activity of COC1=C(OC)C(=O)C(CCCCCCCCCCC2CCCCC2)=C(C)C1=O falls below 70%? Thanks.
Result: False

Q: Please determine if CCCCCCCCCCCCCCCC1=C(C)C(=O)C(OC)=C(OC)C1=O is below 70% in terms of activity.
Result: False
